system: Yellow fever virus; assay: Antiviral activity against YFV infected in hamster BHK21 cells assessed as protection against viral-induced cytopathogenecity after 3 to 4 days by MTT method; type: functional, organism-based, BHK-21; settings: bhk-21
Readout Kind: pEC50
// pEC50 is dimensionless: -log10 of concentration (M)

Ask: # query: pEC50 of entry "Clc1ccc(NCc2cn(-c3ccccc3)nc2-c2ccc(Br)cc2)cc1"
Reply: 4.37

----------
Each entry below carries its recorded CC50.
experiment: Cytotoxicity against African green monkey Vero 76 cells assessed as cell viability after 48 to 96 hrs by MTT method; type: cell-based; details: chlorocebus sabaeus, Vero 76 cells
Write the value in µM as a bare number.

Please review the following examples before continuing.
Cc1cc(CCCOc2c(C)cc(-c3noc(C(F)(F)F)n3)cc2C)on1: 80
Cc1ccc(-c2nn(-c3ccccc3)cc2CNc2ccc(C(F)(F)F)cc2)cc1: 45
FC(F)(F)c1ccc(NCc2cn(-c3ccccc3)nc2-c2ccccc2)cc1: 17
FC(F)(F)c1ccc(NCc2cn(-c3ccccc3)nc2-c2ccc(Cl)cc2)cc1: 18
Cc1ccc(-c2nn(-c3ccccc3)cc2CNc2ccc(Br)cc2)cc1: 92

We now examine a further compound.
Ask: # query: CC50 of entry "Clc1ccc(NCc2cn(-c3ccccc3)nc2-c2ccc(Cl)cc2)cc1"
Reply: 90
